# Procedure summary: chemical genetic growth profiling, strain panel (AID 1159580);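 also: tested at 20 µM; growth read once vehicle control cultures reached saturation at 30 °C; 1 = growth at the plate median or of vehicle wells; lower values mean less growth of the strain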
# Particulars: S. cerevisiae deletion strains, growth OD, locus YKL085W, strain MDH1, stronger effect = lower value
Out of some 5,500 compounds screened, about 2,000 (36%) were called active. Not shown: some 18% with an inconclusive outcome. The list shows a part of the results.
Observation type: normalized growth
Give the figure by itself; no unit, no explanation.

// query normalized growth value for entry CCCNC(C)C(=O)Nc1ccccc1C (stereo not drawn)
1

Dear colleague, I am looking for the recorded normalized growth of the following compound: CCn1cc(C(=O)O)c(=O)c2cnc(N3CCCC3)nc21
0.998

Recorded normalized growth of CCn1cc(C(=O)O)c(=O)c2cnc(N3CCNCC3)nc21 , please.
0.984

###

# Procedure summary: chemical genetic growth profiling, strain panel (AID 1159580);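 also: tested at 20 µM; growth read once vehicle control cultures reached saturation at 30 °C; 1 = growth at the plate median or of vehicle wells; lower values mean less growth of the strain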
# Particulars: S. cerevisiae deletion strains, growth OD, locus YBL061C, strain skt5, stronger effect = lower value
Screen size: about 5,500 compounds; about 2,000 (36%) were called active. Not shown: some 18% with an inconclusive outcome. Some of the results follow.
Could you please report measured normalized growth for the items listed next?
When you answer, write just the number.

Consider the molecule O=C1OCCN1/N=C\c1ccc([N+](=O)[O-])o1 and give its measured normalized growth.
1

Quick one: normalized growth of OC1CCCCC1N1CCC(c2ccccc2)CC1 (stereo not drawn) ?
0.994

Param item = CCCNC(C)C(=O)Nc1ccccc1C (stereo not drawn) ; retrieve measured normalized growth.
1.01

Which normalized growth reading was recorded for the molecule O=C1CN(/N=C\c2ccc([N+](=O)[O-])o2)C(=O)N1 ?
0.987

If you can, please state the reported normalized growth value of COc1cc(C)c2c(c1C=O)Oc1c(c(C)c(O)c3c1C(O)OC3=O)OC2=O (stereo not drawn) .
1.02

Reported normalized growth for O=C(NC(=O)c1c(F)cccc1F)Nc1cc(Cl)c(OC(F)(F)C(F)C(F)(F)F)cc1Cl (stereo not drawn) : what is it?
0.974

Consider the molecule COc1ccc(C[C@H](N)C(=O)N[C@@H]2[C@@H](CO)OC(n3cnc4c(N(C)C)ncnc43)[C@@H]2O)cc1 (stereo partly drawn) and give its measured normalized growth.
0.996

Entry CS(=O)(=O)OCCCCOS(C)(=O)=O has what normalized growth?
1.01

###

# Procedure summary: chemical genetic growth profiling, strain panel (AID 1159580);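 also: tested at 20 µM; growth read once vehicle control cultures reached saturation at 30 °C; 1 = growth at the plate median or of vehicle wells; lower values mean less growth of the strain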
# Particulars: S. cerevisiae deletion strains, growth OD, locus YPL078C, strain atp4, stronger effect = lower value
Screen size: about 5,500 compounds; about 2,000 (36%) were called active. About 18% were inconclusive and are not listed. This is one part of the list.
Could you please report measured normalized growth for the items listed next?
Form field (numeric): enter value without unit.

I'd like to know its normalized growth. The compound in question is CCn1cc(C(=O)O)c(=O)c2cnc(N3CCNCC3)nc21
1.04

Name the recorded normalized growth for CCOc1ccc2c(c1)C(C)=CC(C)(C)N2 .
1.02

Report normalized growth for CCn1cc(C(=O)O)c(=O)c2cnc(N3CCCC3)nc21 please.
0.974

May I ask what normalized growth has been recorded for CCn1cc(C(=O)O)c(=O)c2ccc(C)nc21 ?
0.927

For the compound shown here, C[C@@H]1CC2C3CCC4=CC(=O)C=C[C@]4(C)[C@@]3(F)[C@@H](O)C[C@]2(C)[C@@]1(O)C(=O)COP(=O)(O)O (stereo partly specified) , give the reported normalized growth.
0.935

I'd like to know its normalized growth. The compound in question is COc1ccc(C[C@H](N)C(=O)N[C@@H]2[C@@H](CO)OC(n3cnc4c(N(C)C)ncnc43)[C@@H]2O)cc1 (stereo partly specified)
0.972
